Reference source for all entries: paper PMC8892280

molecular target: LRRK2 Roc-COR-Kinase-WD40 (RCKW) domain construct (Homo sapiens, UniProt Q5S007, biotinylated (in the BLI experiment)); experiment: BLI
Sequence (Q5S007 whole entry, looked up, tested part not stated): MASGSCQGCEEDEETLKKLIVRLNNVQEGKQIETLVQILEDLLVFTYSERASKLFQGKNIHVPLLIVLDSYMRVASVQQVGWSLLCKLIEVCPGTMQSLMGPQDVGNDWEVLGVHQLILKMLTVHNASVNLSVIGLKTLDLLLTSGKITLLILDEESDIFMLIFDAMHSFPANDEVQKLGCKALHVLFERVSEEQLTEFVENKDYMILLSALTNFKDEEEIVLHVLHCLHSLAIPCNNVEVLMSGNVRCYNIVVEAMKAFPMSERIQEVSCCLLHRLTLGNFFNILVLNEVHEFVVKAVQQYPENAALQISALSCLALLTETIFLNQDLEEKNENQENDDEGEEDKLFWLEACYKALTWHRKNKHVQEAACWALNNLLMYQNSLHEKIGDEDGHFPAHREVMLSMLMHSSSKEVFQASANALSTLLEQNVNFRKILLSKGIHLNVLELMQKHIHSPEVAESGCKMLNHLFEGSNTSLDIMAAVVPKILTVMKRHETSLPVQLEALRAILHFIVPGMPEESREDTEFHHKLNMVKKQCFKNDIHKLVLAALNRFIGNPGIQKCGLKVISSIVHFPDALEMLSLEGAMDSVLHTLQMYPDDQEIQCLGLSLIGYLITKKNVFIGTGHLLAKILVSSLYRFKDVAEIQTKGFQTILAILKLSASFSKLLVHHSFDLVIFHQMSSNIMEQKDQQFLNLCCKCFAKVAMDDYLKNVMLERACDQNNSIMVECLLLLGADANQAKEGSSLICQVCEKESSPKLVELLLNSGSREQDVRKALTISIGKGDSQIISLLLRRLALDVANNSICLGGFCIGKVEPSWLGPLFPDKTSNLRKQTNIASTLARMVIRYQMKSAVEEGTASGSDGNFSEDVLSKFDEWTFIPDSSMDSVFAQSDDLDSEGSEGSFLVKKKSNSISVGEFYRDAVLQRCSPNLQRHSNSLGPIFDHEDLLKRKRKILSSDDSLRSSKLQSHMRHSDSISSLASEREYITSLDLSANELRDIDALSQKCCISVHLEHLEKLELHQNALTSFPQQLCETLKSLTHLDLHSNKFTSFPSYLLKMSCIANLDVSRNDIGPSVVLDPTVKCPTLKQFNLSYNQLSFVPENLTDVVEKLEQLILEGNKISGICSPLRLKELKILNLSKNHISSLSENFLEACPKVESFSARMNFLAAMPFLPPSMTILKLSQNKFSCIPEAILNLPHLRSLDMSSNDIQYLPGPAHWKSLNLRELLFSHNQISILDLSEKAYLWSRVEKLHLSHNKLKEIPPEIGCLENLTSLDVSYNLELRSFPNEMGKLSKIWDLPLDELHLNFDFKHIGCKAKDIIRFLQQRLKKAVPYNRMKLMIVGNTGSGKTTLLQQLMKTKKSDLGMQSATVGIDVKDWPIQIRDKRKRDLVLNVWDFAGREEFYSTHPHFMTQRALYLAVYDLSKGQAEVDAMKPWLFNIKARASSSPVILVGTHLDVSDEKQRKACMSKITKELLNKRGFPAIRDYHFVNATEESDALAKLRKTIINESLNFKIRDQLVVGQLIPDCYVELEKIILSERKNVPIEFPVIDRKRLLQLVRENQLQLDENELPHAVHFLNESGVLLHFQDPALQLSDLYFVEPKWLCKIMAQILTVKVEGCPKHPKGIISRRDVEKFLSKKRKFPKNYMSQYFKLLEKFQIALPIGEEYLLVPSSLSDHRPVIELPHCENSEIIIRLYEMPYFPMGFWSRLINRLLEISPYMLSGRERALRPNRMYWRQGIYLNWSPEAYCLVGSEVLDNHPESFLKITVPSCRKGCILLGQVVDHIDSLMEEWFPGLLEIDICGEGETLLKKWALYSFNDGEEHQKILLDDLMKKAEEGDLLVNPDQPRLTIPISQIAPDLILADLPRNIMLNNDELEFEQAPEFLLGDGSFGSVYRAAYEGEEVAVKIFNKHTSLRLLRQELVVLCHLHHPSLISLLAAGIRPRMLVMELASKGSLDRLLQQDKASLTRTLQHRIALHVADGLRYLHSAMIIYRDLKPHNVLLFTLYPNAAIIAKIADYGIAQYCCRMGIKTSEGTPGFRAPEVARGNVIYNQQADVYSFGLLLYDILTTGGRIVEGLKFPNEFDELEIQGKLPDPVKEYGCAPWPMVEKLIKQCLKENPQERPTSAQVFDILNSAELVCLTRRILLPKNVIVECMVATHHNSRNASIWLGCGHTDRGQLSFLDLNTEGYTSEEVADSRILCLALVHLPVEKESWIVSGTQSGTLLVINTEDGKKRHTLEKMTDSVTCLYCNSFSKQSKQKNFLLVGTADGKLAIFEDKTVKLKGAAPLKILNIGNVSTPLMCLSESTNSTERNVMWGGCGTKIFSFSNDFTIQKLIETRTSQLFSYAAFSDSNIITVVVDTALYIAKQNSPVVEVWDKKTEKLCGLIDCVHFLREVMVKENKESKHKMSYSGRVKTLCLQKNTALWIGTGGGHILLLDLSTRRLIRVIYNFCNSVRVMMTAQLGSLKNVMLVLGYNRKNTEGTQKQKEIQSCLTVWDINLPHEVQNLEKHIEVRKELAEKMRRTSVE
pKd: −log10 of the molar value.
pKd vs 8: at or above is yes, below is no.

These solved cases illustrate the format of a correct answer.
binder	assigned_label
Nb22 (VHH) VHH: QVQLVESGGGLVQAGGSLRLSCAASGRTFSSYTMGWFRQAPGKEREFVAAIRWSGGSTYYADSVKGRFTISRDNAKNTVYLQMNSLKPEDTAVYYCAASDRGGFIATSGGWMDYWGKGTQVTVSS	yes
Nb6 (VHH) VHH: QVQLVESGGGLVQAGGSLRLSCAASGSIFSPTAMGWYRQAPGKERELVAGITSGGYTNYRNFARGRFTISRDNAKKTVYLQMNSLNPEDTAVYYCNTLTISWSWGQGTQVTVSS	yes

Please indicate if the recorded pKd for Nb40 (VHH) VHH: QVQLVESGGGLVQPGGSLRLSCVASGTIYAINRMGWYRQAPGKQRELVALITLGGGTNYGDSVKGRFTISRDNAKNTGYLQMNSLKPEDTAVYYCKVESSGYTDVFWGQGTQVTVSS meets or exceeds 8.
yes

Please indicate if the recorded pKd for Nb1 (VHH) VHH: QVQLVESGGGLVQAGGSLRLSCVASGRIFSGNAMGWYRQAPGRQRELVAGITNGGYTNYRQFVKGRFTISRDNAKRTVYLQMNSLKPEDTAVYYCNALDREARQVDYWGQGTQVTVSS meets or exceeds 8.
no

Please indicate if the recorded pKd for Nb42 (VHH) VHH: QVQLVESGGGLVQAGGSLRLSCAASGDVNYAVGWFRQAPRKEREFVAAINWRGDNTDYTDSVKGRFTISRDNAKNTVYLQMNSLKPEDTAVYYCAAKSAPYWYSDIAPDYWGQGTQVTVSS meets or exceeds 8.
no
